# Target of assay: Cannabinoid receptor 2 (Homo sapiens, UniProt P34972)
# Sequence (P34972 whole entry): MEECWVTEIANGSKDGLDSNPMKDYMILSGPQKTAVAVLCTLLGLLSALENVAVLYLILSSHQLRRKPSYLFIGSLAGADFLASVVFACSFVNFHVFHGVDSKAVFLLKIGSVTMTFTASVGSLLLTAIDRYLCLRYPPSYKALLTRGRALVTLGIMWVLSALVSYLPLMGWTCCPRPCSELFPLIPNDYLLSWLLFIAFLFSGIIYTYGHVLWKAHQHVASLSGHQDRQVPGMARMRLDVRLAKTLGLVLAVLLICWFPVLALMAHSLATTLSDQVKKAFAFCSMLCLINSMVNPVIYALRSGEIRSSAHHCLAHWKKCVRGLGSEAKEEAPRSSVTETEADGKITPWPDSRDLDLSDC
Recorded Ki by entry
Return type: number; implicit unit µM.

Reference set, count: 2
- CCCCCOc1ccccc1-c1cc(C(=O)NC2CCCCCCC2)no1: 0.0735
- CCCOc1ccccc1-c1cc(C(=O)NC23CC4CC(CC(C4)C2)C3)no1: 0.0796

# value lookup — system Cannabinoid receptor 2 (Homo sapiens, UniProt P34972), readout Ki, item COc1ccccc1-c1cc(C(=O)NC23CC4CC(CC(C4)C2)C3)no1
0.0701

---

# Species on record: Homo sapiens
# Assay notes: Selectivity ratio of Ki for human CB1 receptor expressed in CHO membranes to Ki for human CB2 receptor expressed in CHO membranes
# Type: cell membranes
Measured attribute: Ratio Ki

Reference set, count: 6
• CCCCOc1ccccc1-c1cc(C(=O)NC23CC4CC(CC(C4)C2)C3)no1 = > 8
• CCCCCOc1ccccc1-c1cc(C(=O)NC2C3CC4CC(C3)CC2C4)no1 (configuration not stated) = > 49
• CCCCCOc1ccccc1-c1cc(C(=O)NC2CCCCC2)no1 = > 131
• CCCCCOc1ccccc1-c1cc(C(=O)NC2CCCC2)no1 = > 16
• CCCCCOc1ccccc1-c1cc(C(=O)NC23CC4CC(CC2C4)C3)no1 = > 111
• CCCCCOc1ccccc1-c1cc(C(=O)NC2CCCCCC2)no1 = > 49

Data request, read-out Ratio Ki, for CCCCCCOc1ccccc1-c1cc(C(=O)NC23CC4CC(CC(C4)C2)C3)no1
> 98
